Assay: Caspase-3/7 induction in HepG2 cells by small molecules, qHTS cell viability counter screen (AID 1346981); note: nearly all actives have a fitted effect of over 30% in size; note: potency is the fitted concentration of half-maximal effect
Conditions: CellTiter-Fluor fluorescence, 17 h; series mostly up to 92.4 µM
Inconclusive results are not listed. Activity calls are given as the source filed them. Calls come from the whole dose curve; as a rule, active = well fitted cell-killing curve with a large enough effect in the repeat runs; inconclusive = weak or mixed curves, or effect the other way; inactive = flat fitted curve, though single readings scatter.
quantity_name: Potency

CCOB(OCC)OCC
inactive
CCc1cccc(CC)c1N(COC)C(=O)CS(=O)(=O)O
inactive
OCCC(O)CO (stereo unspecified)
inactive
C=CC(=O)OCCN(CC)CC
inactive
COc1cccc(OC)c1O
inactive
Cc1cc2c(C(C)C)c(O)c(O)c(C=O)c2c(O)c1-c1c(C)cc2c(C(C)C)c(O)c(O)c(C=O)c2c1O
26.6 µM (active)
CC(=O)C=O
inactive
OCCCCl
inactive

Retrieve Potency measured for "CCCCCCCCCCCCN(CCO)CCO" and print it.
68.3 µM (active)

// fetch Potency given entry "CCCCCCCC/C=C/CCCOC(C)=O"
inactive

Item C=CC(C)(CCC=C(C)C)OC(=O)/C=C/c1ccccc1 (stereo unspecified) : provide Potency
inactive
